experimental_endpoint: melting point

INSERT INTO measurements (compound, experimental_endpoint, endpoint_value) VALUES
  ('O=[N+]([O-])c1ccc(S(=O)(=O)Cl)c(C(F)(F)F)c1', 'melting point', '78 to 80 °C'),
  ('Nc1cc(F)c(-n2cccn2)cc1N', 'melting point', '101 to 103 °C'),
  ('NC(=O)Cc1nc2ccccc2s1', 'melting point', '167 to 169 °C'),
  ('O=C(O)c1cc(-c2ccc3c(c2)CCO3)no1', 'melting point', '235 to 237 °C'),
  ('CC(C)(C)C(=O)NO', 'melting point', '169 to 171 °C'),
  ('Cn1c(C(N)c2ccccc2)nc2ccccc21 (stereo unspecified)', 'melting point', '110 to 112 °C');
